Data credit: paper PMC5540273

Tested on: TXK
assay setup: concentration: 1 μM, replicates: in singlicate; n = 1;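 further: KINOMEscan kinase panel screen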
test readout: %Inh (%)
Report only the number, with the unit % understood.

Data request: Lab note: TXK assay, enter %Inh for CCC(=O)c1c(-c2ccccc2)c2cc(Cl)ccc2c(=O)n1Cc1cc(S(C)(=O)=O)n(CC(N)=O)n1 here
Data returned: 0

Data request: Tell me its %Inh on TXK: Cc1cc(Nc2nc(-c3cccc(C)n3)nc3ccccc23)ccn1
Data returned: 0

Data request: Give measured %Inh for COc1ccc(-c2cc3c(C)nc(N)nc3n([C@H]3CC[C@H](OCCO)CC3)c2=O)cn1 (TXK).
Data returned: 2

Data request: Report %Inh under test system TXK for COc1cccc(C2=C(Nc3cccc(C(=O)O)c3)C(=O)NC2=O)c1 .
Data returned: 48

====

System: NEK5
assay setup: concentration: 1 μM, replicates: in singlicate; n = 1
test readout: %Inh (%)
Please give a number only; it is taken to be in %.

Data request: Give %Inh for the following compound: Cc1nn2c(=O)cc(N3CCOCC3)nc2n1Cc1cccc(Cl)c1Cl [GSK2342769]
Data returned: 0

Data request: Give the reported value of %Inh for this record: Cn1c(=O)c(F)c(Nc2ccc(I)cc2F)c2c(=O)n(OC[C@H](O)CO)cnc21
Data returned: 4

Data request: Kindly indicate its recorded %Inh. Item: Nc1ncnc2c1ncn2-c1cccc2ccccc12 [SKF-97184]
Data returned: 0

Data request: Item COc1cccc(C2=C(N(C)c3ccccc3)C(=O)NC2=O)c1 [SB-334865] : provide %Inh
Data returned: 0

Data request: Look up %Inh of Cc1ccccc1COc1cc(-n2cnc3cc(Cl)ccc32)sc1C(N)=O [GW813349] and report it.
Data returned: 6

Data request: Report measured %Inh; entry is COc1cc2ncn(-c3cc(OCCCc4ccccc4)c(C(N)=O)s3)c2cc1OC [GSK205189]
Data returned: 0

Data request: Tell me %Inh reported for Cc1cc(Nc2nc(-c3cccc(C)n3)nc3ccccc23)ccn1 [GW872411]
Data returned: 6

Data request: # return recorded %Inh for input COc1ccc(-c2cc3c(C)nc(N)nc3n([C@H]3CC[C@H](O)CC3)c2=O)cn1
Data returned: 0

Data request: Answer with the recorded %Inh for the compound listed here: COc1cc2ncn(-c3cc(OCc4ccncc4Br)c(C(N)=O)s3)c2cc1OC [GW854278]
Data returned: 2

====

Consider the following molecules; for each one, report its %Inh.
System: TTK
assay setup: concentration: 1 μM, replicates: in singlicate; n = 1
The response must be a number in % with no trailing unit.

Data request: # return %Inh of OCCCNc1nccc(-c2c(-c3cccc(C(F)(F)F)c3)nn3cc(C(F)(F)F)ccc23)n1 (system: TTK)
Data returned: 0

Data request: GET %Inh | system: TTK | item: Nc1ncnc2c1ncn2-c1ccc(Cl)cc1
Data returned: 0

Data request: Quote %Inh with test system TTK for CCC(=O)c1c(-c2ccccc2)c2cc(Cl)ccc2c(=O)n1Cc1cc(S(C)(=O)=O)n(CC(N)=O)n1
Data returned: 8

Data request: Give %Inh for COc1ccc(-n2cnc3c(N)ncnc32)cc1 tested on TTK.
Data returned: 28

Data request: Fill in %Inh for Nc1ncnc2c1ncn2-c1cccc(F)c1 tested with TTK.
Data returned: 0

Data request: Specify %Inh for Cc1nn2c(=O)cc(N3CCOCC3)nc2n1Cc1cccc(Cl)c1Cl , system TTK.
Data returned: 0

Data request: Quote TTK %Inh for entry O=C(NCCNc1ccnc(Nc2ccc(F)cc2)n1)Nc1ccc2c(c1)OCO2 .
Data returned: 15

Data request: Name the recorded %Inh of Cl.c1ccc(Cn2cnc3cc(Nc4ncnc5ccccc45)ccc32)cc1 , assay system TTK.
Data returned: 0

Data request: Give %Inh only, for O=C(NCc1cccs1)c1cc(C(=O)c2c(Cl)cccc2Cl)c[nH]1 , using TTK data.
Data returned: 9

Data request: Output reported %Inh of the molecule Cc1ccc(-c2ccc3c(ccc4sc5c(c43)NC[C@@H](C)N=C5N(C)C)n2)cn1 on TTK.
Data returned: 0

Data request: Fill in %Inh for CCCNC(=O)Nc1ccc(Oc2ncnc3ccn(C)c23)cc1 tested with TTK.
Data returned: 0

Data request: Report %Inh on TTK for this entry: CC(C)(C)c1ccc(C(=O)Nc2cn3cc(-c4ccccc4)ccc3n2)cc1
Data returned: 0

Data request: Report the value of %Inh obtained on TTK for COc1cccc(-n2cnc3c(N)ncnc32)c1 .
Data returned: 44

Data request: Give %Inh for COc1cc(OC)cc(-c2cc3cnc(N)nc3nc2NC(=O)NC(C)(C)C)c1 tested on TTK.
Data returned: 0

Data request: Check TTK data and give %Inh for CCCC(=O)Nc1n[nH]c2ncc(-c3cccc4ccccc34)cc12 .
Data returned: 0

Data request: Write down measured %Inh (TTK) for this molecule. COc1cc2ncn(-c3cc(OCc4ccc(S(C)(=O)=O)cc4)c(C(N)=O)s3)c2cc1OC
Data returned: 0

Data request: Give measured %Inh for Nc1n[nH]c2ncc(-c3ccccc3)cc12 (TTK).
Data returned: 33

Data request: Under TTK, report %Inh for Cc1ccccc1COc1cc(-n2cnc3cc(Cl)ccc32)sc1C(N)=O
Data returned: 2

Data request: Answer briefly: %Inh recorded on TTK for Cc1nnc(-c2ccc3ncn(-c4ccc(S(C)=O)cc4)c3c2)o1 (centres unmarked)
Data returned: 0

Data request: Send back TTK %Inh of Cc1nc(N(C)[C@H]2CN(C(=O)CC#N)CC[C@H]2C)c2cc[nH]c2n1 only.
Data returned: 19

Data request: Look up and report measured %Inh (TTK) for the following molecule: CCS(=O)(=O)c1ccc(OC)c(Nc2ncc(-c3ccc(F)cc3)o2)c1.Cl
Data returned: 0

Data request: Please look at CCc1nc(-c2cccc(C)c2)c(-c2ccncc2)s1 and tell me its recorded %Inh on TTK.
Data returned: 0

Data request: Recall the reported %Inh of Cl.NS(=O)(=O)c1cccc(Nc2cc(-c3ccc(F)cc3)n[nH]2)c1 on TTK and write it down.
Data returned: 0

Data request: Fill in %Inh for COc1ccc(-c2coc3ccc(-c4nnc(SCc5cccc(C#N)c5)o4)cc23)cc1 tested with TTK.
Data returned: 6

Data request: Answer with %Inh of COc1cc2ncn(-c3cc(OCc4ccncc4)c(C(N)=O)s3)c2cc1OC measured for TTK.
Data returned: 0

Data request: Answer with %Inh of Cn1c(=O)c(F)c(Nc2ccc(I)cc2F)c2c(=O)n(OC[C@H](O)CO)cnc21 measured for TTK.
Data returned: 15

Data request: // fetch %Inh for Nc1nc(-c2ccccc2F)c(-c2ccnc3ccccc23)s1 ; system: TTK
Data returned: 20

Data request: Specify %Inh for COc1cc2nccc(Nc3ccc(OCc4ccc(NC(C)=O)cc4)cc3)c2cc1OC.Cl , system TTK.
Data returned: 0

Data request: Report %Inh under test system TTK for COc1ccc(-c2cc3c(C)nc(N)nc3n([C@H]3CC[C@H](OCCO)CC3)c2=O)cn1 .
Data returned: 0

Data request: Name the value of %Inh reported for Cc1nnc(-c2ccc(C)c(-c3ccc(C(=O)O)cc3)c2)o1 when tested on TTK.
Data returned: 12

Data request: // output %Inh; input COC(=O)c1c(-c2ccccc2)c2cc(Br)ccc2c(=O)n1Cc1ccc(S(C)(=O)=O)cc1 ; system TTK
Data returned: 31

Data request: System TTK. Read-out %Inh. Item COc1cc(Nc2nccc(N3CCC(NC(=O)C(C)c4ccc(Cl)cc4)C3)n2)cc(OC)c1OC (centres unmarked) . Report value.
Data returned: 0

Data request: Find the measured %Inh of O=C(Nc1n[nH]c2nc(-c3ccccc3)c(Cl)cc12)C1CC1 with TTK as test system.
Data returned: 0

Data request: Would you please give the reported %Inh of CCC(=O)c1c(-c2ccccc2)c2cc(Cl)ccc2c(=O)n1Cc1cc(S(C)(=O)=O)n(CCC(C)(C)O)n1 with TTK?
Data returned: 4

Data request: Provide the reported %Inh (system: TTK) for CN1C(=O)C(Nc2ccccc2)=C(c2ccccc2)C1=O
Data returned: 0

Data request: GET %Inh | system: TTK | item: COc1cccc(C2=C(Nc3cccc(C(=O)O)c3)C(=O)NC2=O)c1
Data returned: 0

Data request: Fill in %Inh for COc1cccc(C2=C(N(C)c3ccccc3)C(=O)NC2=O)c1 tested with TTK.
Data returned: 0

Data request: Supply %Inh measured with TTK for Nc1n[nH]c2nnc(-c3ccccc3)c(-c3ccccc3)c12 .
Data returned: 0

====

System: MST2
Construct: gene STK3
assay setup: concentration: 1 μM, replicates: in singlicate; n = 1
Class definitions on %Inh: LOW (below 1%), MID (1% to below 20%), HIGH (20% or more)

Data request: # bin label for COc1cc2ncn(-c3cc(OCc4ccncc4Br)c(C(N)=O)s3)c2cc1OC
Data returned: HIGH

Data request: Hi, small favor: classify FC(F)(F)c1ccc(-c2ncn(CCCN3CCOCC3)c2-c2ccncc2)cc1 by its %Inh when you get a moment.
Data returned: HIGH

Data request: Quick check: band for Cc1ccccc1COc1cc(-n2cnc3cc(Cl)ccc32)sc1C(N)=O
Data returned: MID

Data request: Field: class (%Inh) — entry: COc1cc2ncn(-c3cc(OCc4ccc(S(C)(=O)=O)cc4)c(C(N)=O)s3)c2cc1OC
Data returned: HIGH

Data request: Textbook exercise: identify the category of the compound given here, O=C1NC(=O)C(c2ccccc2)=C1Nc1cccc(O)c1 , according to its measured value.
Data returned: HIGH

Data request: Record O=C(NCc1cccs1)c1cc(C(=O)c2c(Cl)cccc2Cl)c[nH]1 — which class?
Data returned: LOW

Data request: Record CCC(=O)c1c(-c2ccccc2)c2cc(Cl)ccc2c(=O)n1Cc1ccc(C(=O)O)cc1 — which class?
Data returned: LOW

Data request: Exercise: read the entry CN1C(=O)C(Nc2ccccc2)=C(c2ccccc2)C1=O and state which class it falls under.
Data returned: LOW

Data request: Lab note: sort COc1cccc(C2=C(N(C)c3ccccc3)C(=O)NC2=O)c1 into the matching %Inh band.
Data returned: LOW

Data request: Kindly state the category for this compound: COc1ccc(-c2coc3ccc(-c4nnc(SCc5cccc(C#N)c5)o4)cc23)cc1
Data returned: MID

Data request: Using the reported %Inh, which band applies to CCC(=O)c1c(-c2ccccc2)c2cc(Cl)ccc2c(=O)n1Cc1cc(S(C)(=O)=O)n(CCC(C)(C)O)n1 ?
Data returned: MID

Data request: // return the class label for Cc1cc(Nc2nc(-c3cccc(C)n3)nc3ccccc23)ccn1
Data returned: LOW

Data request: Class? Entry: COc1ccc(-n2cnc3c(N)ncnc32)cc1
Data returned: MID

Data request: Exercise: read the entry Cc1c(Cn2c(C)nn3c(=O)cc(N4CCO[C@H](C)C4)nc23)cccc1C(F)(F)F and state which class it falls under.
Data returned: MID

Data request: Looking at CN1C(=O)C(Nc2cc(Cl)c(O)c(Cl)c2)=C(c2ccc(Cl)cc2)C1=O , which class would you pick?
Data returned: HIGH

Data request: Kindly identify the class of Nc1nc(N)c2nc(-c3ccccc3)[nH]c2n1 .
Data returned: HIGH

Data request: State the class of the compound shown: Cc1cccc(-c2nc(Nc3ccc4c(cnn4C)c3)c3ccccc3n2)n1
Data returned: LOW
